Biological target: T1, purified interference factor(s) from serum of Donor B
T1 construct: text names Donors 8, 19 and 30
Experiment: Biacore, immobilized interference factor
Please provide measured binding vs Reference Sequence (=100%) for the entries that follow.
State the answer as a number, implicitly in %.

binding vs Reference Sequence (=100%) in this record for SEQ ID NO 80 (VHH, T110Q, S112G, S113G) VHH: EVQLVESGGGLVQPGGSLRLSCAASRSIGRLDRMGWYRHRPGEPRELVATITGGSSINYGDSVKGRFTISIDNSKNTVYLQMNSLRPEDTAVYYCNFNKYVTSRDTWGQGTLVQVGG : 5

binding vs Reference Sequence (=100%) in this record for SEQ ID NO 69 (VHH, L108Q) VHH: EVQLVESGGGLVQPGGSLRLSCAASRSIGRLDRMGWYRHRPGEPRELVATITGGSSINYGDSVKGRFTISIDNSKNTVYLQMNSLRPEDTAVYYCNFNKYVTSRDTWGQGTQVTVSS : 120

Origin of measurements: patent US20140205597A1
